Cited source for all entries: paper PMC9719714

# Method notes: In vitro cytotoxicity MTT assay
# Format: cell-based, murine
# Condition notes: mouse, 3T3 murine fibroblast cells, cell viability, 72 h

[
  {
    "Compound": "O=C(O)c1cc(O)c(O)c(O)c1 [GA, Gallic acid]",
    "Unit text": "%",
    "viability at 72 h, 50 µg/mL": 4.95
  }
]
